For each entry below, report its IC50 value.
target: HDAC8 (Homo sapiens (Human), UniProt Q9BY41); assay: In vitro enzyme inhibition assay - HDAC (HDAC-Glo I/II), HDAC8; type: biochemical; conditions: read-out: HDAC IC50 (nM) HDAC 8
Sequence (Q9BY41 whole entry): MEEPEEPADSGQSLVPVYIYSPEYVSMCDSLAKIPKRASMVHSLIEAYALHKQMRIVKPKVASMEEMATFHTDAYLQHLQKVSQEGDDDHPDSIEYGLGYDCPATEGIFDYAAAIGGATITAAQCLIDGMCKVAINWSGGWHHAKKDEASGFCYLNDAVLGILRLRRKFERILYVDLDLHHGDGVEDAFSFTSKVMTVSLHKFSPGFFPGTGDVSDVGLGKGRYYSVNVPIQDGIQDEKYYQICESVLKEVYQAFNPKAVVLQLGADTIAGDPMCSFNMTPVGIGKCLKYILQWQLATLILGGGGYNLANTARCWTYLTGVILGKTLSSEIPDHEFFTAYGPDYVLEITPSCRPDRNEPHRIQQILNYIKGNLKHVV
Where a name gives a salt, the structure may show the parent alone.
Only the number, expressed in nM, is required.

Task: Which value of IC50 has been reported for `N#Cc1ccc(-c2c(-c3ccc(C(F)(F)F)c(O)c3)cnc(N3CCC(NCc4cnc(CCC(=O)NO)nc4)CC3)c2C#N)cc1F` in the records?
Output: 172

Task: What do we get for COc1ccc(-c2cnc(N3CCC(N)(CCc4ccc(/C=C/C(=O)NO)cc4)CC3)c(C#N)c2-c2ccc(C#N)c(F)c2)cc1O [Example 86, formate] ?
Output: 578

Task: What do we get for COc1ccc(-c2c(C#N)cc(N3CCC(NCc4cnc(/C=C/C(=O)NO)nc4)CC3)nc2-c2ccc(C#N)c(F)c2)cc1O [Example 234, formate] ?
Output: 51.1

Task: What do we get for COc1ccc(-c2cnc(N3CCC(NC(C)c4ccc(/C=C/C(=O)NO)cc4)CC3)c(C#N)c2-c2ccc(C#N)c(F)c2)cc1O (stereo not drawn) [Example 210, formate] ?
Output: 456

Task: What do we get for COc1ccc(-c2cnc(N3CCC(NCc4cnc(CCC(=O)NO)nc4)CC3)c(C#N)c2-c2ccc(C#N)c(F)c2)cc1O [Example 152, hydrochloride] ?
Output: 131

Task: What do we get for N#Cc1ccc(-c2c(-c3ccc(/C=C/C(=O)NO)cc3)cnc(N3CCC(N)CC3)c2C#N)cc1F [Example 63, diformate] ?
Output: 561

Task: What do we get for COc1ccc(-c2cnc(N3CCC(NCc4ccc(/C=C/C(=O)NO)c5[nH]ncc45)CC3)c(C#N)c2-c2ccc(C#N)c(F)c2)cc1O [Example 180, formate] ?
Output: 1240

Task: What do we get for C/C(=C\C(=O)NO)c1ccc(CNC2CCN(c3ncc(-c4ccc(OCC(C)(C)O)c(O)c4)c(-c4ccc(C#N)c(F)c4)c3C#N)CC2)cc1 [Example 212, hydrochloride] ?
Output: 41.5

Task: What do we get for `N#Cc1ccc(-c2c(-c3ccc(Cl)c(O)c3)cnc(N3CCC(NCc4ccc(/C=C/C(=O)NO)cc4)CC3)c2C#N)cc1F` ?
Output: 207

Task: What do we get for `COc1ccc(-c2ccc(C(=O)N3CC[C@H](NCc4ccc(/C=C/C(=O)NO)cc4)C3)cc2-c2ccc(C#N)c(F)c2)cc1O` ?
Output: 160

Task: What do we get for COc1ccc(-c2cnc(N3CCC(NCc4ccc(/C=C/C(=O)NO)cc4)CC3)c(C#N)c2-c2ccc(C#N)cc2F)cc1O [Example 134, formate] ?
Output: 46

Task: What do we get for Cc1c(O)cc(-c2cnc(N3CCC(NCc4ccc(/C=C/C(=O)NO)cc4)CC3)c(C#N)c2-c2ccc(C#N)c(F)c2)cc1F [Example 161, formate] ?
Output: 304

Task: What do we get for Cc1ccc(-c2cnc(N3CCC(NCc4ccc(/C=C/C(=O)NO)cc4)CC3)c(C#N)c2-c2ccc(C#N)c(F)c2)cc1O [Example 102, formate] ?
Output: 178

Task: What do we get for `COc1ccc(-c2cnc(N3CCC(NCCNc4ncc(C(=O)NO)cn4)CC3)c(C#N)c2-c2ccc(C#N)c(F)c2)cc1O` ?
Output: 37.1

Task: What do we get for COc1ccc(-c2cnc(N3CCC(NCc4ccc(/C=C/C(=O)NO)o4)CC3)c(C#N)c2-c2ccc(C#N)c(F)c2)cc1O [Example 178, formate] ?
Output: 1710

Task: What do we get for COc1ccc(-c2cnc(N3CCC(N(C)Cc4ccc(/C=C/C(=O)NO)cc4)CC3)c(C#N)c2-c2ccc(C#N)c(F)c2)cc1O [Example 42, formate] ?
Output: 328

Task: What do we get for `CC(C)(O)COc1ccc(-c2cnc(N3CCC(NCc4ccc(/C=C/C(=O)NO)nc4)CC3)c(C#N)c2-c2ccc(C#N)c(F)c2)cc1O` ?
Output: 33.9

Task: What do we get for `N#Cc1ccc(-c2c(-c3ccc(N4CCOCC4)c(O)c3)cnc(N3CCC(NCc4ccc(/C=C/C(=O)NO)cc4)CC3)c2C#N)cc1F` ?
Output: 25.3

Task: What do we get for `COc1ccc(-c2cnc(N3CCC(NCC4CCN(c5ccc(C(=O)NO)cc5)CC4)CC3)c(C#N)c2-c2ccc(C#N)c(F)c2)cc1O` ?
Output: 17.2

Task: What do we get for COc1ccc(-c2cnc(N3CCC(Nc4cccc(/C=C/C(=O)NO)c4)CC3)c(C#N)c2-c2ccc(C#N)c(F)c2)cc1O [Example 81, formate] ?
Output: 695

Task: What do we get for `Cn1cnc2cc(-c3cnc(N4CCC(NCc5ccc(/C=C/C(=O)NO)cc5)CC4)c(C#N)c3-c3ccc(C#N)c(F)c3)ccc21` ?
Output: 77.7

Task: What do we get for COc1ccc(-c2cnc(N3CCC(NCc4ccc(CCC(=O)NO)nc4)CC3)c(C#N)c2-c2ccc(C#N)c(F)c2)cc1O [Example 191, formate] ?
Output: 37.5

Task: What do we get for N#Cc1ccc(-c2c(-c3ccc(/C=C/C(=O)NO)c(O)c3)cnc(N3CCC(N)CC3)c2C#N)cc1F [Example 62, hydrochloride] ?
Output: 3190

Task: What do we get for `COc1ccc(-c2cnc(N3CCC(NCc4ccc(/C=C/C(=O)NO)cc4)CC3)c(C#N)c2-c2ccc(C#N)cc2)cc1O` ?
Output: 30.3
